Origin of measurements: the supplement of paper PMC12297408

Tested on: Plasmodium falciparum NF54/iGP1_RE9H ulg8 stage V gametocytes
Assay: gametocyte viability (luciferase signal relative to DMSO control) (% of DMSO control); higher = less gametocytocidal activity, active = 50 or less
Conditions: concentration: 1 µM; exposure time: 72 h
The following molecules are listed with their measured gametocyte viability values.
Response field accepts a number only; no unit should be typed.

Quick note, gametocyte viability for CCOC(=O)Nc1cc(-c2ccc(C)c(NS(C)(=O)=O)c2)nn2c(C)nnc12 landed at 86.5

* * *

Test system: Plasmodium falciparum NF54/iGP1_RE9H ulg8 stage V gametocytes
Assay: gametocyte viability (luciferase signal relative to DMSO control) (% of DMSO control); higher = less gametocytocidal activity, active = 50 or less
Conditions: concentration: 1 µM; exposure time: 72 h
Structures can show the parent of a compound that is named as a salt.
Metric: gametocyte viability
Response field accepts a number only; no unit should be typed.

Measured gametocyte viability (Plasmodium falciparum NF54/iGP1_RE9H ulg8 stage V gametocytes), entry Cc1ccc(NC(=O)c2ccc(CN3CCN(C)CC3)cc2)cc1Nc1nccc(-c2cccnc2)n1 [Imatinib (Gleevec)] : 104

Measured gametocyte viability (Plasmodium falciparum NF54/iGP1_RE9H ulg8 stage V gametocytes), entry Cn1c(Nc2ccc(C(F)(F)F)cc2)nc2cc(Oc3ccnc(-c4ncc(C(F)(F)F)[nH]4)c3)ccc21 : 103

Measured gametocyte viability (Plasmodium falciparum NF54/iGP1_RE9H ulg8 stage V gametocytes), entry CC(C)(C)Cn1c(N)nc2ccc(-c3[nH]c(C(C)(C)C)nc3-c3ccc(F)cc3)nc21 : 97.8

Measured gametocyte viability (Plasmodium falciparum NF54/iGP1_RE9H ulg8 stage V gametocytes), entry Cc1cc(Nc2cc(CN3CCOCC3)c3nc(C)c(Cc4ccc(Cl)cc4F)n3n2)n[nH]1 : 95.6

Measured gametocyte viability (Plasmodium falciparum NF54/iGP1_RE9H ulg8 stage V gametocytes), entry Clc1ccc(Nc2nnc(Cc3ccncc3)c3ccccc23)cc1 [Vatalanib dihydrochloride (PTK787)] : 111

Measured gametocyte viability (Plasmodium falciparum NF54/iGP1_RE9H ulg8 stage V gametocytes), entry CO[C@H]1C[C@@H]2CC[C@@H](C)[C@@](O)(O2)C(=O)C(=O)N2CCCC[C@H]2C(=O)O[C@H]([C@H](C)C[C@@H]2CC[C@@H](OCCO)[C@H](OC)C2)CC(=O)[C@H](C)/C=C(\C)[C@@H](O)[C@@H](OC)C(=O)[C@H](C)C[C@H](C)/C=C/C=C/C=C/1C [Everolimus (RAD001)] : 91

Measured gametocyte viability (Plasmodium falciparum NF54/iGP1_RE9H ulg8 stage V gametocytes), entry CC(C)(C)c1cc(NC(=O)Nc2ccc(-c3cn4c(n3)sc3cc(OCCN5CCOCC5)ccc34)cc2)no1 [Quizartinib (AC220)] : 97.7

* * *

System: Plasmodium falciparum NF54/iGP1_RE9H ulg8 stage V gametocytes
Test: gametocyte viability (luciferase signal relative to DMSO control) (% of DMSO control); higher = less gametocytocidal activity, active = 50 or less
Details: concentration: 10 µM; exposure time: 72 h
Counter-ions that a name gives are not always drawn.
Metric: gametocyte viability
Response field accepts a number only; no unit should be typed.

- Compound: "COc1cc(Nc2ncc(F)c(Nc3ccc4c(n3)N(COP(=O)(O)O)C(=O)C(C)(C)O4)n2)cc(OC)c1OC"
  gametocyte viability: 101
- Compound: "Cc1csc(-c2nnc(Nc3ccc(Oc4ncccc4-c4ccnc(N)n4)cc3)c3ccccc23)c1"
  gametocyte viability: 112
- Compound: "Cn1cc(C2=C(c3cn(CCCSC(=N)N)c4ccccc34)C(=O)NC2=O)c2ccccc21 [Ro 31-8220 mesylate]"
  gametocyte viability: 78.9

Note: attention shifts to another entry.
Quick note, gametocyte viability for CC(C)c1cnn2c(NCc3ccccc3)cc(NCCCCCCN)nc12 landed at 86.5
